Assay: Cytotoxicity against african green monkey Vero E6 cells assessed as inhibition of cell growth by CCK-8 assay
Assay type: toxicity, cell-based, Vero C1008
Conditions: chlorocebus sabaeus
quantity-name: CC50

Memo: `CCC(CC)COC(=O)[C@H](C)N[P@](=O)(OC[C@H]1O[C@@](C#N)(c2ccc3c(N)ncnn23)[C@H](O)[C@@H]1O)Oc1ccccc1` , reported CC50: > 100 µM

Notebook: `NC(=O)c1nc(F)c[nH]c1=O` , CC50 read as > 400 µM

----------
Experiment: Selectivity index, ratio of CC50 for african green monkey Vero 76 cells to EC90 for SARS-CoV-2 infected in African Green monkey Vero 76 cells assessed as reduction in cytopathic effect
Type: toxicity, cell-based
Conditions: read-out: Selectivity Index
quantity-name: selectivity ratio

Measured selectivity ratio, `Nc1ncnc2c([C@@H]3N[C@H](CO)[C@@H](O)[C@H]3O)c[nH]c12` : 5.8

----------
Experiment: Selectivity index, ratio of CC50 for human Caco-2 cells to EC90 for SARS-CoV-2 infected in human Caco-2 cells
Type: toxicity, cell-based
Details: read-out: Selectivity Index
quantity-name: selectivity ratio
Output spec: single numeric token, no unit.

Summary for this compound, `Nc1ncnc2c([C@@H]3N[C@H](CO)[C@@H](O)[C@H]3O)c[nH]c12` : selectivity ratio is 5.8

----------
Test: Therapeutic index, ratio of CC50 for HEK293T cells to EC50 for inhibition of SARS-CoV-2 RdRp
Type: toxicity
Conditions: human, read-out: TI
For each of the molecules below, state its selectivity ratio.
Please respond with just the number, no unit label.

# selectivity ratio of `CC(C)(C)OC(=O)N[C@H]1CCN(c2ccc3cccc(OCC(=O)NCc4ccccc4)c3n2)C1` = 34.8

# molecule `CC(C)(C)OC(=O)N1CCN(c2ccc3cccc(OCC(=O)NCc4ccccc4)c3n2)CC1` ; its selectivity ratio = 65.5

The value of selectivity ratio measured for the molecule `CC(C)(C)OC(=O)N[C@@H]1CCN(c2ccc3cccc(OCC(=O)NCc4ccccc4)c3n2)C1` turned out to be 20.3

----------
Assay: in vitro
Settings: human, Calu-3 cells
Description: Selectivity index, ratio of CC50 for human Calu-3 cells to EC50 for SARS-CoV-2 infected in human Calu-3
quantity-name: selectivity ratio

Measured selectivity ratio of `NC(=O)c1ncn([C@@H]2O[C@H](CO)[C@@H](O)[C@H]2O)n1` : 16

----------
Experiment: Selectivity index, ratio of CC50 for african green monkey Vero 76 cells to EC90 for SARS-CoV-2 infected in African Green monkey Vero 76 cells
Type: toxicity, cell-based
Settings: read-out: Selectivity Index
quantity-name: selectivity ratio

Item: `Nc1ncnc2c([C@@H]3N[C@H](CO)[C@@H](O)[C@H]3O)c[nH]c12` | selectivity ratio: > 27

----------
Experiment: Cytotoxicity against african green monkey Vero E6 cells assessed as inhibition of cell growth incubated for 4 days by MTS assay
Type: toxicity, cell-based, Vero C1008
Conditions: chlorocebus sabaeus, time 4 day
Would you kindly list CC50 at 96 h for each of these compounds?

Sample `O=C(O)[C@H]1O[C@@H](Oc2cc3oc(-c4ccccc4)cc(=O)c3c(O)c2O)[C@H](O)[C@@H](O)[C@@H]1O` ; CC50 at 96 h observed: > 100 µM

CC50 at 96 h reading for `O=c1cc(-c2ccccc2)oc2cc(O)c(O)c(O)c12` : 8.6 µM
